Origin of values: patent US20180161310A1

- TARGET_SYSTEM: Kv7.2/7.3 (KCNQ2/3) (Homo sapiens, UniProt O43525+O43526)
- Construct: expressed in transfected cells; host or cells: CHO
- MEASUREMENT_PROTOCOL: CHO-Kv7.2/7.3 (KCNQ2/3) 86Rb efflux assay
- Assay type: cell-based
- REPORTED_CONDITIONS: Table 7, second, unlabelled line of values; read-out: EC50 (μM, raw)
Quick reference for EC50 among some compounds

// known answers, use as guide
CCCOc1nn(CCC)cc1C(=O)Nc1ccc(F)cc1F [TT0000349]: > 30 µM
CCCOc1nn(CCC)cc1C(=O)Nc1ccccc1 [TT0000363]: > 30 µM

Moving on to the next compound.
[Q] What does the data say about its EC50? Entry: CCCOc1nn(CCC)cc1C(=O)Nc1ccc(C(F)(F)F)c(F)c1 [TT0000367]
[A] > 30 µM
